- Target under test: T1, ErbB3-mFc (human)
- T1 construct: Dimeric soluble ErbB3; also called hErbB3.mFc
- T1 chain: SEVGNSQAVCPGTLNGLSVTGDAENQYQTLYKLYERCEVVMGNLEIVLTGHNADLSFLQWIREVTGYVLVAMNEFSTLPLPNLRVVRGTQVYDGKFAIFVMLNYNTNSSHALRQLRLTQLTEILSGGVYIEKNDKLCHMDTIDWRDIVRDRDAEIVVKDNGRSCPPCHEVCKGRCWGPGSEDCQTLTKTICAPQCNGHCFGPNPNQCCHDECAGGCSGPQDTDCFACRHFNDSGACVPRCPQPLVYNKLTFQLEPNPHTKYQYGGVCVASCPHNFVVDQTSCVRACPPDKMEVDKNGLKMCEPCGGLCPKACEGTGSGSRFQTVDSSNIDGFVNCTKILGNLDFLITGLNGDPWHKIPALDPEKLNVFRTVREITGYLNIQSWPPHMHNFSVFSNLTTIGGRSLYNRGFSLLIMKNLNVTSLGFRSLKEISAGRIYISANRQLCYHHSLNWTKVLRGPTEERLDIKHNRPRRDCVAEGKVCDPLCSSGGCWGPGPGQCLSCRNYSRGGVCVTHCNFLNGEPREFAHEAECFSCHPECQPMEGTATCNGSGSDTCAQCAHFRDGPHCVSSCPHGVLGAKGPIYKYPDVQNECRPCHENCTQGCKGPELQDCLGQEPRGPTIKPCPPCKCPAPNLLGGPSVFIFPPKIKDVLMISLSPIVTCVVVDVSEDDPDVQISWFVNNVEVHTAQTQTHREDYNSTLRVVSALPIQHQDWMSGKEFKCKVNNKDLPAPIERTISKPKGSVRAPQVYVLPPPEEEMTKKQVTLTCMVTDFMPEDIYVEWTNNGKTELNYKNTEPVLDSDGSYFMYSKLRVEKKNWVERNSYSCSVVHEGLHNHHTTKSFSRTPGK
- Procedure summary: blocking ELISA: antibody (0-50 nM) + 50 pM ErbB3-mFc, binding to coated neuregulin1b
pIC50: −log10 of the molar value.
Overview of reported pIC50 across a group of binders:
Assay metric: pIC50

[[record]]
binder = "H4H2084P (antibody, human IgG4, V domains shown, Human IgG4 Fc (prefix H4H)) VH: QVQLVESGGGVVQSGKSLRLSCVASGFTFSNYGMHWVRQTPGKGLEWVARIWFDGTNKYYTDSVKGRFTLSRDSSKNTLYLQMNSLRAEDTAVYFCAREESLELDHYVMDVWGQGTTVTVSS VL: AIQMTQSPSSLSASVGDRVTITCRASQDIRDDLGWFQQKPGKAPNLLIYAASSLQSGVPSRFSGSGSGTDFTLTISSLQPEDFATYYCLQDYNYPLTFGGGTKVEIKR"
reported_value = 10.06

[[record]]
binder = "H4H2148P (antibody, human IgG4, V domains shown, Human IgG4 Fc (prefix H4H)) VH: EVQLVESGGGLVHPGRSLRLSCAASGFTFDDYAMHWVRQSPGKGLEWVSGISWNSVIKHSTDSVRGRFTISRDNAKNSLYLQMNSLKPEDTAFYYCAKDEDDWNYLDYWGQGTLVTVSS VL: DIQMTQSPSSVSASVGDRVTITCRASQDINSWLAWYQQKPGKAPKLLIYTSSNLQSGVPSRFSGSGSGTDFTLTISSLQPEDFATYYCQQSDSFPFTFGPGTKVDIKR"
reported_value = 10.29

[[record]]
binder = "H4H2094P (antibody, human IgG4, V domains shown, Human IgG4 Fc (prefix H4H)) VH: EVQLVESGGGLVQPGGSLRLSCAASGFTFSSYDMHWVRQATGKGLEWVSAIGPAGDTYYPVSAMGRFTISRDDAKNSLYLQMNSLRAGDTAVYYCAREGVTIRPDDYFGLDVWGQGTTVTVSA VL: DIQLTQSPSFLSASVGDRVTITCWASQGISDYLAWYQKKPGKAPQLLIYAATTLQSGVPSRFSGSGSGTEFTLTISSLQPEDFATYYCQQLNTYPLTFGGGTKVEIKR"
reported_value = 10.05

[[record]]
binder = "H4H2140P (antibody, human IgG4, V domains shown, Human IgG4 Fc (prefix H4H)) VH: EVQLVESGGGLVQPGGSLRLSCAASGFSVSYYDMHWVRQVTGKGLEWVSAIGPAGDTYYPGSVKGRFTISREDATNSLYLQIHSLGAGDTAVYYCAREGAIAARPDDYYGMDVWGQGTTVTVSS VL: DIQLTQSPSFLSASVGDRVTITCWASQDISSYLAWYQQKPGKAPKLLIYAASTLQSGVPSRFSGSGSGTEFTLTISSLQPEDFATYYCQQLNSYPLTFGGGTKVEIKR"
reported_value = 10.02

[[record]]
binder = "H4H2108P (antibody, human IgG4, V domains shown, Human IgG4 Fc (prefix H4H)) VH: EVQLLESGGDLVQPGGSLRLSCATSGFSFSSDAMNWVRQAPGKGLEWVSGISGSGGNTYYADSVKGRFTISRDISKSTLSLQMNSLRAEDTAVYYCAKEGTNMVRGVVMEDNGMDVWGQGTTVTVSA VL: DIQMTQSPSSVSASVGDRVTITCRASQGISDYLAWYQQKPGKAPKLLIYAASSLQSGVPSRFSGRGSGTDFTLTISTLQPEDFATYYCQQANSFPLTFGGGTKVDIKR"
reported_value = 9.94

[[record]]
binder = "H4H2154P (antibody, human IgG4, V domains shown, Human IgG4 Fc (prefix H4H)) VH: QVQLQESGPGLINPSQTLSVTCTVSGGSISSGGYYWTWIRQHPGKGLEWIGYISYSGNTNYNPSLKSRVTISVDTAKNQFSLKLSSVTAADTAVYFCARDSDVDTAMVDGIDIWGQGTMVTVSS VL: DIQMTQSPSSVSASVGDRVTITCRASQDISSWLAWYQQKPGRAPKLLIYTASSLQSGVPSRFSGSGSGTDFTLTISSLQPEDFATYFCQQANSFPFTFGPGTKVDIKR"
reported_value = 10.05

